I'd be grateful if you could share measured Binding to FcγRIIIA (ELISA) for these entries.
Biological target: T1, soluble monomeric FcγRIIIA (extracellular region joined to linker-AVITAG), allele not stated (human, UniProt P08637 17-208)
T1 construct: extracellular domain; also called FcRIIIA; CD16A; not shown: linker-AVITAG
T1 sequence (P08637 17-208): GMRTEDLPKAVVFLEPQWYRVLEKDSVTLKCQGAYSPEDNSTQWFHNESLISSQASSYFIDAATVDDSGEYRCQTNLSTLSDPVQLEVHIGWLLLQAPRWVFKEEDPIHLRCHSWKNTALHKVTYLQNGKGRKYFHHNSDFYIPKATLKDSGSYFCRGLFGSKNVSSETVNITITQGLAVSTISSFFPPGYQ
Assay: ELISA
Value expressed in fold increase; do not type the unit.

What does the data say about its Binding to FcγRIIIA (ELISA)? Entry: IgG1 Fc mutant P247L, I253N, K334N (antibody) heavy: ASTKGPSVFPLAPSSKSTSGGTAALGCLVKDYFPEPVTVSWNSGALTSGVHTFPAVLQSSGLYSLSSVVTVPSSSLGTQTYICNVNHKPSNTKVDKKVEPKSCDKTHTCPPCPAPELLGGPSVFLFPPKLKDTLMNSRTPEVTCVVVDVSHEDPEVKFNWYVDGVEVHNAKTKPREEQYNSTYRVVSVLTVLHQDWLNGKEYKCKVSNKALPAPIENTISKAKGQPREPQVYTLPPSRDELTKNQVSLTCLVKGFYPSDIAVEWESNGQPENNYKTTPPVLDSDGSFFLYSKLTVDKSRWQQGNVFSCSVMHEALHNHYTQKSLSLSPGK
3

Try this binder too: IgG1 Fc mutant V397M, T411A, S415N (antibody) heavy: ASTKGPSVFPLAPSSKSTSGGTAALGCLVKDYFPEPVTVSWNSGALTSGVHTFPAVLQSSGLYSLSSVVTVPSSSLGTQTYICNVNHKPSNTKVDKKVEPKSCDKTHTCPPCPAPELLGGPSVFLFPPKPKDTLMISRTPEVTCVVVDVSHEDPEVKFNWYVDGVEVHNAKTKPREEQYNSTYRVVSVLTVLHQDWLNGKEYKCKVSNKALPAPIEKTISKAKGQPREPQVYTLPPSRDELTKNQVSLTCLVKGFYPSDIAVEWESNGQPENNYKTTPPMLDSDGSFFLYSKLAVDKNRWQQGNVFSCSVMHEALHNHYTQKSLSLSPGK
0.25

This collection of values is drawn from patent US20090098124A1.
